// data source = patent US6020363A

assay_method_text: Levels of Orally Administered Test Compounds in Blood Plasma
Assay type: in vivo, male ICR mice
details: mouse, plasma; oral 25 mg/kg, 4 hr; read-out: Concentration of unchanged M143 in blood plasma, mean
reported_property: concentration at 4 h (ng/mL)
Please state the figure in ng/mL; there is no need to write the unit.

**Query** For the molecule COc1cc(O)c2c(=O)oc(CO)cc2c1 [MI43, reference compound] , report concentration at 4 h.
**Result** 48

----------
assay_method_text: Levels of Orally Administered Test Compounds in Blood Plasma
Type: in vivo, male ICR mice
details: mouse, plasma; oral 25 mg/kg, 24 hr; read-out: Concentration of unchanged Compound 3 in blood plasma, mean
reported_property: concentration at 24 h (ng/mL)
Numeric answer only, unit ng/mL assumed.

**Query** Identify concentration at 24 h associated with the molecule COc1cc(O)c2c(=O)oc(C(C)C(=O)O)cc2c1 (stereo not shown)
**Result** 190
